For each of the compounds below, state its IC50.
Target: human HER2 (23-652) (Homo sapiens)
Assay: TR-FRET competition assay for peptide potency, human HER2
Format: binding
Design: towards human HER2 (23-652) and mouse HER2 (23-653); made in house; host or cells: mammalian cells
Conditions: TR-FRET competition with Cy5 labeled peptide probe, 0.1 nM human HER2, 24 h incubation; read-out: huHER2 TR-FRET IC50
Method: Both proteins containing a His-, Avi-tag and biotin in Nterminus, were expressed in mammalian cells and produced in house. […] Standard assay conditions consist of 20 uL total volume in white 384-well plates (Greiner), in 10 mM HEPES buffer containing 150 mM NaCl, 3 mM EDTA, 0.05% Tween20 and 1% final DMSO. […] The ratiometric FRET assay readout is calculated from the ratio of the raw data of the two distinct fluorescence signals measured in time resolved mode (fluorescence 665 nm/fluorescence 620 nm). […]

query: I would be grateful if you could share the reported IC50 for CC(=O)N[C@H]1CCCC(=O)NC[C@@H](C(=O)N(C)[C@@H](Cc2ccc(F)cc2)C(=O)N[C@@H](CCCCNC(=O)CN2CCN(CC(=O)O)CCN(CC(=O)O)CCN(CC(=O)O)CC2)C(N)=O)N(C)C(=O)[C@H](C2CC2)NC(=O)[C@H](Cc2c[nH]c3ccccc23)NC(=O)[C@H](Cc2c[nH]c3ccc(O)cc23)NC(=O)[C@H](CCCCNC(=O)CO)N(C)C(=O)[C@H](CCc2ccccc2)N(C)C(=O)[C@H](CO)NC(=O)[C@H](Cc2ccc(O)cc2)NC1=O .
result: 0.1 nM

query: What about CC(=O)NCCCC[C@H]1C(=O)N[C@@H](Cc2c[nH]c3ccc(O)cc23)C(=O)N[C@@H](Cc2c[nH]c3ccccc23)C(=O)N[C@@H](C2CC2)C(=O)N(C)[C@H](C(=O)N(C)[C@@H](Cc2ccc(F)cc2)C(=O)N[C@@H](CCCCNC(=O)CCC(C(=O)O)N2CCN(CC(=O)O)CCN(CC(=O)O)CC2)C(N)=O)CNC(=O)CCC[C@H](NC(C)=O)C(=O)N[C@@H](Cc2ccc(O)cc2)C(=O)N[C@@H](CO)C(=O)N(C)[C@@H](CCc2ccccc2)C(=O)N1C (single isomer, unassigned) [Example C34] ?
result: < 0.1 nM

query: Further, for CC(=O)NCCCC[C@H]1C(=O)N[C@@H](Cc2c[nH]c3ccc(O)cc23)C(=O)N[C@@H](Cc2c[nH]c3ccccc23)C(=O)N[C@@H](C2CC2)C(=O)N(C)[C@H](C(=O)N(C)[C@@H](Cc2ccc(F)cc2)C(=O)N[C@@H](CCCCNC(=O)CN2CCN(CC(=O)O)CCN(CC(=O)O)CCN(CC(=O)O)CC2)C(N)=O)CNC(=O)CCC[C@H](NC(C)=O)C(=O)N[C@H](Cc2ccc(O)cc2)C(=O)N[C@H](CO)C(=O)N(C)[C@@H](CCc2ccccc2)C(=O)N1C ?
result: > 9500 nM
